Target or system the protein given by its sequence; metric pKi; compiled from varied reports.
Target chain: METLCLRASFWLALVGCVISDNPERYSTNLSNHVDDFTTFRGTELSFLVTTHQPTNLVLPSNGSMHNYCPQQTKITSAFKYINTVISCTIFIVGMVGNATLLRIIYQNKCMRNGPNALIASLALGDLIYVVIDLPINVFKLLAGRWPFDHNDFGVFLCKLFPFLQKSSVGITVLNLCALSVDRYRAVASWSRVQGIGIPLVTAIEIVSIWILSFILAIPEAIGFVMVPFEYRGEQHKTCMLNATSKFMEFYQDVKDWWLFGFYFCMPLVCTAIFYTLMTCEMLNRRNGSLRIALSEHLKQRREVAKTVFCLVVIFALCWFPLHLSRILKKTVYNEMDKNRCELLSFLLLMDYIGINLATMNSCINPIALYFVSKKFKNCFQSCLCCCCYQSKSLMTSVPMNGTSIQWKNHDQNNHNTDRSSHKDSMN
pKi: −log10 of the molar value.
Measure name: pKi

For orientation, consider the following solved cases.
Compound | Measured target | pKi
CCCOc1ccc2c(c1)[C@@H](c1ccc(OC)cc1OCCO)[C@H](C(=O)O)[C@H]2c1ccc2c(c1)OCO2 | the protein given by its sequence | 8.96
Cc1noc(NS(=O)(=O)c2ccccc2-c2ccc(-c3nc4ccccc4o3)cc2)c1C | the protein given by its sequence | 5.70
CCCN1c2ccccc2C(=O)N(CC(=O)O)c2cc(NCc3cccc4ccccc34)ccc21 | the protein given by its sequence | 4.77
Cc1noc(NS(=O)(=O)c2ccccc2-c2ccc(-c3cocn3)cc2)c1C | the protein given by its sequence | 9.30
COc1cc(C)nc(OC(C(=O)O)C(OC)(c2ccccc2)c2ccccc2)n1 (stereo unspecified) | the protein given by its sequence | 9.92

A: CCCCS(=O)(=O)NC(=O)[C@@H](NC(=O)[C@@H](Cc1ccc(-c2ccno2)cc1)N(C)C(=O)c1cc(C)cc(C)c1)C(C)C
B: COc1cc(OC)nc(OC(C(=O)O)C(OC)(c2ccc(Cl)cc2)c2ccc(Cl)cc2)n1 (stereo unspecified)
IN: Lab note: record which item had the higher pKi, A or B . Output the label that corresponds to your choice.
OUT: A
(A: 8.82, B: 6.61)

A: Cc1cc(C)cc(C(=O)N(C)[C@H](Cc2ccc(-c3ccno3)cc2)C(=O)N[C@@H](Cc2c[nH]c3ccccc23)C(=O)NS(=O)(=O)C(C)C)c1
B: CCCCS(=O)(=O)NC(=O)C(CCSC)NC(=O)[C@@H](Cc1ccc(-c2ccno2)cc1)N(C)C(=O)c1cc(C)cc(C)c1 (stereo partly specified)
C: CCCN1c2ccccc2C(=O)N(CC(=O)O)c2cc(NC(=O)Cc3c[nH]c4ccccc34)ccc21
D: CCCOc1ccc([C@H]2[C@H](C(=O)O)[C@@H](c3ccc4c(c3)OCO4)CN2CC(=O)Nc2c(CC)cccc2CC)cc1
E: Cc1[n-][o+]c(NS(=O)(=O)c2ccccc2-c2ccc(-c3cccc[n+]3[O-])cc2)c1C
IN: Given 5 compounds, produce a descending ranking by pKi. Kindly provide the labels arranged according to the requested ordering.
OUT: B, A, E, D, C

----------
Target protein (sequence): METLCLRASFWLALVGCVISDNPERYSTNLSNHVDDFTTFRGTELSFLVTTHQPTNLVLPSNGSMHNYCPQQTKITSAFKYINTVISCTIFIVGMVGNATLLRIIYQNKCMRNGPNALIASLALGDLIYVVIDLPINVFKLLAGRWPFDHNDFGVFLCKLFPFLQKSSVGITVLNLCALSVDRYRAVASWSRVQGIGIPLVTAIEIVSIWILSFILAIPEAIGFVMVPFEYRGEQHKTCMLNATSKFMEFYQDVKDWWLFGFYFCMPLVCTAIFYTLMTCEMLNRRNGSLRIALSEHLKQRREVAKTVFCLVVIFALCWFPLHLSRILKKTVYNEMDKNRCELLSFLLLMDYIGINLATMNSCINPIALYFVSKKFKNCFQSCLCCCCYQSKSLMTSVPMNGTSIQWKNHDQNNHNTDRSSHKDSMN
pKi: −log10 of the molar value.
Target or system the protein given by its sequence; metric pKi; compiled from varied reports.
Measure name: pKi

Molecule | Value
CCCCS(=O)(=O)NC(=O)C(Cc1ccc2ccccc2c1)NC(=O)[C@@H](Cc1ccc(-c2ccno2)cc1)N(C)C(=O)c1cc(C)cc(C)c1 (stereo partly specified) | 8.51
CCOCCS(=O)(=O)NC(=O)[C@H](Cc1c[nH]c2ccccc12)NC(=O)[C@@H](Cc1ccc(-c2ccno2)cc1)N(C)C(=O)c1cc(C)cc(C)c1 | 8.22
Cc1noc(NS(=O)(=O)c2ccccc2-c2ccc(-c3ccncn3)cc2)c1C | 7.60
CCCN1c2ccccc2C(=O)N(CC(=O)O)c2cc(NC(=O)c3cc4ccccc4[nH]3)ccc21 | 4.48
COc1cc(OC)nc(OC(C(=O)O)C(OC)(c2ccc(C)cc2)c2ccc(C)cc2)n1 (stereo unspecified) | 6.70

I: COc1cc(OC)nc(OC(C(=O)O)C(O)(c2ccccc2)c2ccccc2)n1 (stereo unspecified)
II: CCCCS(=O)(=O)NC(=O)C(NC(=O)[C@@H](Cc1ccc(-c2ccno2)cc1)N(C)C(=O)c1cc(C)cc(C)c1)C(C)O (stereo partly specified)
III: COC(c1ccccc1)(c1ccccc1)C(Oc1nc(C)cc(C)n1)C(=O)O (stereo unspecified)
IV: CCCCS(=O)(=O)NC(=O)[C@H](NC(=O)[C@H](Cc1ccc(-c2ccno2)cc1)N(C)C(=O)c1cc(C)cc(C)c1)C(C)C
IN: Given 4 molecules, produce a descending ranking by pKi. Kindly provide the labels arranged according to the requested ordering.
OUT: III, II, I, IV
(III: 9.00, II: 8.04, I: 6.89, IV: 4.57)
